The origin of these recorded values is ChEMBL document CHEMBL1124676.

System: UV4
experiment_notes: Inhibitory concentration required to reduce cell density in UV-4 cells to 50% of controls (cells were exposed to compound for 4 days continuously)
Type: functional, cell-based
condition_description: Cricetulus griseus, UV4, 96 h
Please respond with reported log10 of IC50 for every item in the list.
Each number you see is log10 of IC50, and the unit inside the log is nM.

Respectfully, I request log10 of IC50 for each entry included below.
1. COc1ccc([N+](=O)[O-])c2c(NCCCN(C)C)c3ccccc3nc12
2. CC(=O)OCCN(CCOC(C)=O)c1ccc([N+](=O)[O-])c2c(NCCCN(C)C)c3ccccc3nc12
3. CN(C)CCCNc1c2ccccc2nc2c(F)ccc([N+](=O)[O-])c12
4. Cc1ccc([N+](=O)[O-])c2c(NCCCN(C)C)c3ccccc3nc12
5. COC(=O)c1ccc([N+](=O)[O-])c2c(NCCCN(C)C)c3ccccc3nc12

Response line:
[1.16, 3.54, 0.30, 0.22, 2.77]

Respectfully, I request log10 of IC50 for each entry included below.
1. CN(C)CCCNc1c2ccccc2nc2c(N(C)C)ccc([N+](=O)[O-])c12
2. CN(C)CCCNc1c2ccccc2nc2cccc([N+](=O)[O-])c12
3. CN(C)CCCNc1c2ccccc2nc2c(Cl)ccc([N+](=O)[O-])c12

Response line:
1. 2.61
2. -0.18
3. -0.21

---

experiment_notes: Extrapolated fraction of biological activity remaining at time zero of hypoxic AA8 suspension cultures
Format: ADME
condition_description: hamster
reported_property: A0

Completed entries (count: 2):
INSERT INTO results (smiles_data, reported_property, obs_value) VALUES
  ('CN(C)CCCNc1c2ccccc2nc2c(F)ccc([N+](=O)[O-])c12', 'A0', 0.84),
  ('CN(C)CCCNc1c2ccccc2nc2c(N(C)C)ccc([N+](=O)[O-])c12', 'A0', 0.68);

Respectfully, I request A0 for each entry included below.
1. CN(C)CCCNc1c2ccccc2nc2cccc([N+](=O)[O-])c12
2. COc1ccc([N+](=O)[O-])c2c(NCCCN(C)C)c3ccccc3nc12
3. CC(=O)OCCN(CCOC(C)=O)c1ccc([N+](=O)[O-])c2c(NCCCN(C)C)c3ccccc3nc12
4. COC(=O)c1ccc([N+](=O)[O-])c2c(NCCCN(C)C)c3ccccc3nc12
5. Cc1ccc([N+](=O)[O-])c2c(NCCCN(C)C)c3ccccc3nc12
6. CN(C)CCCNc1c2ccccc2nc2c(Cl)ccc([N+](=O)[O-])c12

Response line:
0.98
0.78
1.03
0.45
1.12
0.56

---

experiment_notes: Extrapolated fraction of biological activity remaining at time zero of stirred aerobic AA8 suspension cultures
Assay type: ADME
condition_description: hamster
reported_property: A0
Numbers only.

Completed entries (count: 2):
INSERT INTO assay_data (smiles_data, reported_property, obs_value) VALUES
  ('CC(=O)OCCN(CCOC(C)=O)c1ccc([N+](=O)[O-])c2c(NCCCN(C)C)c3ccccc3nc12', 'A0', 1.11),
  ('CN(C)CCCNc1c2ccccc2nc2cccc([N+](=O)[O-])c12', 'A0', 0.86);

Respectfully, I request A0 for each entry included below.
1. Cc1ccc([N+](=O)[O-])c2c(NCCCN(C)C)c3ccccc3nc12
2. CN(C)CCCNc1c2ccccc2nc2c(N(C)C)ccc([N+](=O)[O-])c12
3. CN(C)CCCNc1c2ccccc2nc2c(F)ccc([N+](=O)[O-])c12
4. CN(C)CCCNc1c2ccccc2nc2c(Cl)ccc([N+](=O)[O-])c12

Response line:
[0.65, 0.78, 0.64, 0.79]

Consider "COc1ccc([N+](=O)[O-])c2c(NCCCN(C)C)c3ccccc3nc12" . Its measured A0 is 0.76

---

experiment_notes: Ratio of growth inhibition of compound to reduce cell density by 50% of repair deffective mutant UV-4 cells in 96-well cultures under aerobic and hypoxic conditions (air/N2)
Format: functional
reported_property: Ratio
Give bare numbers.

INSERT INTO measurements (smiles_data, obs_value) VALUES
  ('COc1ccc([N+](=O)[O-])c2c(NCCCN(C)C)c3ccccc3nc12', 4.2);

Respectfully, I request Ratio for each entry included below.
1. CN(C)CCCNc1c2ccccc2nc2c(F)ccc([N+](=O)[O-])c12
2. Cc1ccc([N+](=O)[O-])c2c(NCCCN(C)C)c3ccccc3nc12
3. CN(C)CCCNc1c2ccccc2nc2c(Cl)ccc([N+](=O)[O-])c12
4. CN(C)CCCNc1c2ccccc2nc2cccc([N+](=O)[O-])c12
5. COC(=O)c1ccc([N+](=O)[O-])c2c(NCCCN(C)C)c3ccccc3nc12
6. CC(=O)OCCN(CCOC(C)=O)c1ccc([N+](=O)[O-])c2c(NCCCN(C)C)c3ccccc3nc12

Response line:
1. 1.4
2. 4.6
3. 4.9
4. 3.8
5. 1.2
6. 4.8

Consider "CN(C)CCCNc1c2ccccc2nc2c(N(C)C)ccc([N+](=O)[O-])c12" . Its measured Ratio is 2.3

---

experiment_notes: Half life of extracellular bioactivity assessed by bioassay of culture supernatant against aerobic UV-4 cells
Type: ADME, cell-based, Cricetulus griseus, UV4
condition_description: chinese hamster, aerobic UV-4 cell cultures (culture supernatant)
Please respond with reported half-life for every item in the list.
Give bare numbers, in h.

Completed entries (count: 5):
INSERT INTO results (smiles_data, reported_property, obs_value) VALUES
  ('CN(C)CCCNc1c2ccccc2nc2c(F)ccc([N+](=O)[O-])c12', 'half-life', 0.91),
  ('CN(C)CCCNc1c2ccccc2nc2cccc([N+](=O)[O-])c12', 'half-life', 7.3),
  ('CC(=O)OCCN(CCOC(C)=O)c1ccc([N+](=O)[O-])c2c(NCCCN(C)C)c3ccccc3nc12', 'half-life', 18),
  ('COc1ccc([N+](=O)[O-])c2c(NCCCN(C)C)c3ccccc3nc12', 'half-life', 14),
  ('CN(C)CCCNc1c2ccccc2nc2c(Cl)ccc([N+](=O)[O-])c12', 'half-life', 4.3);

Consider "CN(C)CCCNc1c2ccccc2nc2c(N(C)C)ccc([N+](=O)[O-])c12" . Its measured half-life is 4.8

---

experiment_notes: Total compound concentration in AA8 suspension cultures at zero time
Format: ADME
condition_description: hamster
reported_property: CO

Completed entries (count: 5):
INSERT INTO assay_data (smiles_data, obs_value) VALUES
  ('CN(C)CCCNc1c2ccccc2nc2c(Cl)ccc([N+](=O)[O-])c12', '0.04 mM'),
  ('CN(C)CCCNc1c2ccccc2nc2c(F)ccc([N+](=O)[O-])c12', '0.1 mM'),
  ('COC(=O)c1ccc([N+](=O)[O-])c2c(NCCCN(C)C)c3ccccc3nc12', '0.01 mM'),
  ('Cc1ccc([N+](=O)[O-])c2c(NCCCN(C)C)c3ccccc3nc12', '0.2 mM'),
  ('CN(C)CCCNc1c2ccccc2nc2cccc([N+](=O)[O-])c12', '0.04 mM');

Now for the molecule whose CO we want.
Consider "COc1ccc([N+](=O)[O-])c2c(NCCCN(C)C)c3ccccc3nc12" . Its measured CO is 3 mM
